# target.system: human A2A receptor (Homo sapiens)
# Sequence (P29274 whole entry): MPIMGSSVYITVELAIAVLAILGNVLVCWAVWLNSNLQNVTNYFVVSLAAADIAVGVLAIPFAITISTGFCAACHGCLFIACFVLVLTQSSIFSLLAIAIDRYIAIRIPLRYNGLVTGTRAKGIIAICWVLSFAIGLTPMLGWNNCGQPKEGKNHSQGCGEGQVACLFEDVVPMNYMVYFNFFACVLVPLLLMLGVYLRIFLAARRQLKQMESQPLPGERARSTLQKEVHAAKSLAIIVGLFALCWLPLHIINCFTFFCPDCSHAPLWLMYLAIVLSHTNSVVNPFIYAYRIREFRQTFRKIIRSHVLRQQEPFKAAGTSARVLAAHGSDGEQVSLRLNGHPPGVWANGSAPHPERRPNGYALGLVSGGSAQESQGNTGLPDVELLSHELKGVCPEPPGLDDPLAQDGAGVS
# measurement.protocol: Functional A2A receptor activity, recombinant HEK293 cells, cAMP (HTRF), agonist NECA
# Assay type: cell-based
# Set-up: expressed in transfected cells; host or cells: HEK293
# condition.info: read-out: Functional A2A receptor activity, HEK293, cAMP, IC50
endpoint.label: IC50

Query: // returns reported IC50 for input COc1nc(F)c(C2CCOCC2)c2sc(NC(=O)N3CC[C@]4(CCOC4)C3)nc12
Result: < 10 nM

Query: Would you kindly share the measured IC50 for COc1ncc(C2=CCOC2)c2sc(NC(=O)N3CCC4(CCCOC4)C3)nc12 (centres unmarked) ?
Result: < 100 nM

Query: IC50 for COc1ncc(C2=CCOCC2)c2sc(NC(=O)c3ccc([C@@H](C)NC(C)=O)cc3)nc12 ?
Result: < 10 nM

Query: Bench note: what IC50 did COc1ncc(C2=CCOCC2)c2sc(NC(=O)c3c[nH]c(-c4cccnc4)n3)nc12 show?
Result: < 10 nM

Query: Please report the recorded IC50 for COc1nc(F)c(C2CCOCC2)c2sc(NC(=O)N3CCC4(CCCOC4)C3)nc12 (centres unmarked) .
Result: < 10 nM

Query: Item COc1ncc(-c2cnn(C[C@H]3CCCOC3)c2)c2sc(NC(=O)N3CCC4(CCOCC4)C3)nc12 has what recorded IC50?
Result: < 10 nM

Query: Item COc1cnc(N2CCOCC2)c2sc(NC(=O)N3CCOCC3)nc12 [drawing 193, reference compound] has what recorded IC50?
Result: < 10 nM

Query: Requested field: IC50. Item: COc1ncc(-c2ccccc2)c2sc(NC(=O)c3c[nH]cn3)nc12
Result: < 10 nM

Query: Entry COc1nc(F)c(-c2ccccc2)c2sc(NC(=O)N3CC[C@]4(CCCOC4)C3)nc12 : reported IC50 = ?
Result: < 10 nM

Query: # query: IC50 of entry COc1ncc(C2=CCC(OC)CC2)c2sc(NC(=O)N3CC[C@]4(CCCOC4)C3)nc12 (some centres unmarked)
Result: < 10 nM

Query: Looking for the measured IC50 of COc1ncc(-c2ccnc(N)c2)c2sc(NC(=O)N3CCC4(CCOCC4)C3)nc12 , can you help?
Result: < 10 nM

Query: Look at this molecule and give its reported IC50. COc1ncc(-c2ccccc2)c2sc(NC(=O)N3CCC(N4C(=O)CNC4=O)CC3)nc12
Result: < 10 nM

Query: GET /values?readout=IC50&item= COc1ncc(-c2cccc(NCc3cocn3)c2)c2sc(NC(=O)N3CCC4(CCOCC4)C3)nc12
Result: < 10 nM

Query: May I ask what IC50 has been recorded for COc1nc(F)c(C2CCOCC2)c2sc(NC(=O)N3CC[C@]4(CCCOC4)C3)nc12 ?
Result: < 10 nM

Query: So what does the record say about IC50 for COc1nc(F)c(N2CCOCC2)c2sc(NC(=O)N3CCC4(CCCOC4)C3)nc12 (centres unmarked) ?
Result: < 10 nM

Query: Query (molecule): COc1ncc(C2=CCOCC2)c2sc(NC(=O)N3CCC4(CCCNC4)C3)nc12 (centres unmarked) ; field requested: IC50
Result: < 10 nM

Query: If you can, please state the reported IC50 value of COc1ncc(-c2cnn(C(F)F)c2)c2sc(NC(=O)N3CCC4(CCOCC4)C3)nc12 .
Result: < 10 nM

Query: Consider the molecule COc1ncc(-c2ccc3cc[nH]c3c2)c2sc(NC(=O)N3CCC4(CCOCC4)C3)nc12 and give its measured IC50.
Result: < 10 nM

Query: Find the recorded IC50 belonging to COc1cccc(-c2cnc(OC)c3nc(NC(=O)N4CCC5(CCOCC5)C4)sc23)c1 and report it.
Result: < 10 nM

Query: Recorded IC50 for COc1nc(F)c(N2CCOCC2)c2sc(NC(=O)N3CCC4(CCOC4)C3)nc12 (centres unmarked) , please?
Result: < 10 nM

Query: Requested read-out: IC50. Entry: COc1ncc(C2COCCO2)c2sc(NC(=O)c3ccc(C(=O)O)cc3)nc12 (centres unmarked)
Result: < 10 nM

Query: If you can, please state the reported IC50 value of COc1nc(F)c(-c2ccccc2)c2sc(NC(=O)N3CC[C@@]4(CCCOC4)C3)nc12 .
Result: < 10 nM

Query: Given the entry COc1ncc(C2=CCOCC2)c2sc(NC(=O)Nc3ccc(N4N=C(C)CC4=O)cc3)nc12 , report its measured IC50.
Result: < 10 nM

Query: What value of IC50 has been recorded for this entry: COc1ncc(C2=CCOCC2)c2sc(NC(=O)Nc3ccc(NC(C)=O)c(C)c3)nc12
Result: < 10 nM

Query: // query IC50 value for entry COc1nc(F)c(N2CCOCC2)c2sc(NC(=O)c3ccc(-c4nnn[nH]4)cc3)nc12
Result: < 10 nM

Query: Item COc1ncc(-c2ccco2)c2sc(NC(=O)N3CCC4(CCOCC4)C3)nc12 has what recorded IC50?
Result: < 10 nM

Query: Given COc1nc(F)c(N2CCOCC2)c2sc(NC(=O)N3CC[C@]4(CCCOC4)C3)nc12 , state its recorded IC50.
Result: < 10 nM

Query: Endpoint output: IC50 of COc1ncc(-c2ccccc2)c2sc(NC(=O)N3CCC(C(=O)N(C)C)CC3)nc12 . Value?
Result: < 10 nM

Query: # IC50 lookup, item COc1nc(F)c(C2CCOCC2)c2sc(NC(=O)c3ccc(C(=O)N(C)C)cc3)nc12
Result: < 10 nM

Query: Query (molecule): COC(=O)N(C)Cc1ccc(C(=O)Nc2nc3c(OC)ncc(C4=CCOCC4)c3s2)cc1 ; field requested: IC50
Result: < 10 nM

Query: // IC50 lookup, key: COc1ncc(C2=CCOCC2)c2sc(NC(=O)N3CCC4(CCCOC4)C3)nc12 (centres unmarked)
Result: < 10 nM

Query: Recorded IC50 of COc1ncc(C2=CCOCC2)c2sc(NC(=O)N3CCC(N4C(=O)C=CC4=O)CC3)nc12 , please.
Result: < 10 nM
